Molecular target: T1, recombinant LILRB2 ECD (human, UniProt Q8N423 22-460)
T1 construct: also called biotinylated LILRB2 ECD
T1 sequence (Q8N423 22-460 limits assumed): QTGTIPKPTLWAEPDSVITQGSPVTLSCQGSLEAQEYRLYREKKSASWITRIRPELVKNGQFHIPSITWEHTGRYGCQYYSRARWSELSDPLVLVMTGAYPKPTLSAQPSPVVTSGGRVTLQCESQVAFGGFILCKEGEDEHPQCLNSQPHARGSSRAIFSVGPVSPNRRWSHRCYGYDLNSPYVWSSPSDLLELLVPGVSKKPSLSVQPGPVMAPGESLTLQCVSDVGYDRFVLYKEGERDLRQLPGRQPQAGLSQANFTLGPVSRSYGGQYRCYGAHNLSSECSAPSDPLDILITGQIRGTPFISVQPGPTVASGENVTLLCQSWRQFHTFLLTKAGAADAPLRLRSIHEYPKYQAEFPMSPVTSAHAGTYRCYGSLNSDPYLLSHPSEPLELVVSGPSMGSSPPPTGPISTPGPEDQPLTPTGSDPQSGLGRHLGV
Test: ELISA, LILRB2 ECD binding to HLA-G-Fc
Method: HLA-G inhibition was tested by ELISA. 384-well Maxisorp plates were coated with 2 ug/mL B2M-HLA-G fused to a mouse IgG2a-Fc and the plates were blocked with 2% (w/v) BSA in PBST. […] After three wash cycles with PBST, residual LILRB binding to HLA-G was detected by developing the ELISA with TMB substrate.
# reported IC50; entries follow
Kindly provide the numeric value in nM only, without the unit symbol.

Worked cases, IC50 given:
Ref062 [NGM707, cross-specific] (antibody, from another filing, V domains shown) VH: QVQLVQSGAEVKKPGASVKVSCKASGYTFTDYYINWVRQAPGQGLEWMGNVNPNDGGTTYNQKFKGRVTMTTDTSTSTAYMELRSLRSDDTAVYYCARREIYFYGTIYYYAMDYWGQGTLVTVSS VL: DIQLTQSPSFLSASVGDRVTITCRASESVDYYGNSFMYWYQQKPGKAPKLLIYFASNLESGVPSRFSGSGSGTEFTLTISSLQPEDFATYYCQQNNEDPWTFGGGTKVEIKR
4.7
A-006 (antibody, V domains shown, tested as IgG) VH: QVQLVQSGAEVKKPGSSVKVSCKASGGTFSQYAFSWVRQAPGQGLEWMGSIIPGFTTSNYAHKFQGRVTITADESTSTAYMELSSLRSEDTAVYYCAKDLGTYSSGWPYYYGMDVWGQGTTVTVSS VL: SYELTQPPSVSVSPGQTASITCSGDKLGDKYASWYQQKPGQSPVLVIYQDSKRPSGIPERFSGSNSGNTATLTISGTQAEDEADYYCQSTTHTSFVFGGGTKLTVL
4.8
A-019 (antibody, V domains shown, tested as IgG) VH: QVQLVQSGAEVKKPGSSVKVSCKASGYTFTTSAMNWVRQAPGQGLEWMGGIIPYFSTANYAPKFQGRVTITADESTSTAYMELSSLRSEDTAVYYCAKDLGTYSSGWPYYYGMDVWGQGTTVTVSS VL: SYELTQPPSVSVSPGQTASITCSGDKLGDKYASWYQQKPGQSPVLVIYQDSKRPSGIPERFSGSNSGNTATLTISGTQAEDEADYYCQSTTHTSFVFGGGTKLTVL
4.9
A-030 (antibody, V domains shown, tested as IgG) VH: QVQLVQSGAEVKKPGSSVKVSCKASGGSFQSYAFSWVRQAPGQGLEWMGGIVPIYYTATYAQKFQGRVTITADESTSTAYMELSSLRSEDTAVYYCAKGPPVGSSSWYTDWYFDLWGRGTLVTVSS VL: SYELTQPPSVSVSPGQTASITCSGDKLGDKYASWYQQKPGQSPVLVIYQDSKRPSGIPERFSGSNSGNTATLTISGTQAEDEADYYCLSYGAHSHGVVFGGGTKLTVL
4.4

Query :: // query IC50 value for entry A-032 (antibody, V domains shown, tested as IgG) VH: QVQLVQSGAEVKKPGSSVKVSCKASGGTFQSYAFSWVRQAPGQGLEWMGGIVPQYSTAVYAQKFQGRVTITADESTSTAYMELSSLRSEDTAVYYCAKGPPVGSSSWYTDWYFDLWGRGTLVTVSS VL: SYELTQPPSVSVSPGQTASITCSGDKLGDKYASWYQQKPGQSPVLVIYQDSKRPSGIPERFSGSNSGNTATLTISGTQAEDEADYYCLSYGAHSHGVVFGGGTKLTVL
Result :: 7.6
